Where do these numbers come from? They come from PubChem BioAssay (NCI).

The compounds listed here are annotated with their TGI.
- Test system: SK-MEL-2 melanoma
- test-summary: NCI tumour cell line growth inhibition, 48 h

Solved cases below.
[[record]]
compound = "COc1cccc2c1C(=O)C1=C(C2=O)C(O)CC(C)(C)O1 (configuration not stated)"
observed_value = "> 100 µM"

[[record]]
compound = "N/C(=N\\N=C/c1ccc(O)c(O)c1O)NO"
observed_value = "> 69.8 µM"

[[record]]
compound = "COc1cc(-c2ccc(Br)[nH]2)[nH]c1C=NCC(C)C"
observed_value = "3.07 µM"

[[record]]
compound = "O=C(NCCNc1nccc(-c2c(-c3cccc(O)c3)nc3sccn23)n1)c1ccccc1O"
observed_value = "6.09 µM"

[[record]]
compound = "O=[S@@]1Nc2ccc(Br)cc2S1"
observed_value = "> 100 µM"


Task item: Could you tell me which TGI is on file for `COc1ccc(NC(=S)Nc2cc(C)cc(C)n2)cc1` ?
Reply: > 100 µM

Task item: And what about the compound CCCCS(=O)(=O)CCC(N)P(=O)(O)O (configuration not stated) ?
Reply: > 100 µM

###

- System: NCI-H522 lung
- test-summary: NCI tumour cell line growth inhibition, 48 h
measured-attribute: GI50

Task item: Could you tell me which GI50 is on file for `Cc1cc(=O)n2[nH]c(-c3ccc(C(C)(C)C)cc3)cc2n1` ?
Reply: 3420 nM

Task item: And what about the compound `O=C1/C(=C/c2ccc([N+](=O)[O-])cc2)COc2ccc(O)c(O)c21` ?
Reply: 204 nM

###

- System: M14 melanoma
- test-summary: NCI tumour cell line growth inhibition, 48 h
measured-attribute: TGI

Solved cases below.
[[record]]
compound = "O=C1/C(=C/c2ccc([N+](=O)[O-])cc2)COc2ccc(O)c(O)c21"
measured_attribute = "TGI"
observed_value = "3.3 µM"

[[record]]
compound = "NC1CC(=O)c2cscc21 (centres undefined)"
measured_attribute = "TGI"
observed_value = "> 100 µM"

[[record]]
compound = "NC(CCc1nc(-c2ccc(Cl)cc2)cs1)C(=O)O (centres undefined)"
measured_attribute = "TGI"
observed_value = "> 100 µM"

[[record]]
compound = "C1=CC2C=CC(C=C1)P2c1ccccc1 (centres undefined)"
measured_attribute = "TGI"
observed_value = "> 100 µM"

[[record]]
compound = "CCOC(=O)C1=C(C)CC2C(=O)OC(=O)C2C1(C)C (centres undefined)"
measured_attribute = "TGI"
observed_value = "> 100 µM"

[[record]]
compound = "Cc1ccc2c(c1)[nH]c(=S)n2C=C(C(N)=O)C(N)=O"
measured_attribute = "TGI"
observed_value = "> 100 µM"


Task item: Lab note: need TGI with M14 melanoma for entry `COc1cc2nc(-c3ccc(C(F)(F)F)cc3)cc(OCCCN3CCC(O)CC3)c2cc1OC` , please look it up.
Reply: 2.26 µM

Task item: And what about the compound O=c1n(CC2CO2)c(=O)n(CC2CO2)n1CC1CO1 (centres undefined) ?
Reply: > 100 µM

Task item: And what about the compound COc1cc2c(c(OC)c1O)-c1ccc(SC)c(=O)cc1C(NC(C)=O)CC2 (centres undefined) ?
Reply: > 100 µM

###

- Tested on: SF-295 CNS
- test-summary: NCI tumour cell line growth inhibition, 48 h
Binary classification by TGI, with 20 µM as an inclusive lower bound for satisfied; all other cases are not satisfied.

Examples with answers:
[[record]]
compound = "CC1=C(C(=O)OCCO[N+](=O)[O-])C(c2cccc([N+](=O)[O-])c2)C(C(=O)OC(C)C)=C(C)N1 (stereo unspecified)"
label = "satisfied"

[[record]]
compound = "C=CCc1cc(OC)c2c(c1)C(O)CC(c1ccc(OC)c(OC)c1)O2 (stereo unspecified)"
label = "satisfied"


Task item: Given COc1c2c(cc3c1C(=O)c1c(O)cccc1C3=O)CC(O)CC2 (stereo unspecified) , state whether its TGI is at least 20 µM.
Reply: satisfied

Task item: And what about the compound `O=C1c2cccnc2-c2nc(-c3ccccc3[N+](=O)[O-])cc3c2c1nc1ccccc13` ?
Reply: satisfied

Task item: And what about the compound `CC(=O)[O][Hg][c]1c(N)c(C)cc(C)c1F` ?
Reply: satisfied

Task item: And what about the compound CC(=O)OC1COC(n2c(=S)n(-c3ccc(C)cc3)c(=O)c3ccccc32)C(OC(C)=O)C1OC(C)=O (stereo unspecified) ?
Reply: satisfied

Task item: And what about the compound NS(=O)(=O)c1ccccc1C(=O)N/N=C(\c1nc2ccc([N+](=O)[O-])cc2[nH]c1=O)C(O)c1ccc([N+](=O)[O-])cc1 (stereo unspecified) ?
Reply: satisfied

###

- System: BT-549 breast
- test-summary: NCI tumour cell line growth inhibition, 48 h
The molecules listed here are annotated with their GI50.

Solved cases below.
[[record]]
molecule = "O=C1/C(=C/c2ccc([N+](=O)[O-])cc2)COc2ccc(O)c(O)c21"
measured_attribute = "GI50"
observed_value = "1.44 µM"

[[record]]
molecule = "C[C@@H](CS(C)(=O)=O)Nc1ncc2cc(Oc3ccc(F)cc3F)c(=O)n(C)c2n1"
measured_attribute = "GI50"
observed_value = "> 25 µM"


Task item: Could you tell me which GI50 is on file for `COc1cc2nc(-c3ccc(C(F)(F)F)cc3)cc(OCCCN3CCC(O)CC3)c2cc1OC` ?
Reply: 6.59 µM

Task item: And what about the molecule `Oc1ccc(Cl)cc1-c1cc(-c2ccccc2Cl)[nH]n1` ?
Reply: 36 µM

Task item: And what about the molecule `Cc1cc(=O)n2[nH]c(-c3ccc(C(C)(C)C)cc3)cc2n1` ?
Reply: 17.4 µM

Task item: And what about the molecule CC1=C(C#N)C23C(=O)c4ccccc4C(O)=C2C(=O)C=CC3(O)N1Cc1ccccc1 (configuration not stated) ?
Reply: 36.2 µM

Task item: And what about the molecule `COC(=O)c1ccc2[nH]c(O)c(C(=Nc3ccc(N(C)C(=O)CN4CCN(C)CC4)cc3)c3ccc(C)cc3)c2c1` ?
Reply: 1.13 µM

Task item: And what about the molecule `COc1ccc(C2=CSc3cc(Cl)c(C)cc3S(=O)(=O)N2C(C)=O)cc1` ?
Reply: 29.9 µM

Task item: And what about the molecule `O=C1c2ccccc2C(=O)c2sc(Nc3cccc(Cl)c3)nc21` ?
Reply: 1.67 µM

Task item: And what about the molecule `Fc1ccc(Nc2ncnc3ccc(-c4cnc5[nH]ccc5c4)cc23)cc1Cl` ?
Reply: 3.11 µM

Task item: And what about the molecule `COc1cc(/C=C/c2cc(/C=C/c3ccc(O)c(OC)c3)n(C(=O)Nc3ccc(F)cc3)n2)ccc1O` ?
Reply: 1.18 µM

Task item: And what about the molecule `CNC(=O)c1ccccc1Nc1nc(Nc2ccc(N3CCOCC3)cc2OC)ncc1Cl` ?
Reply: 2.58 µM

###

- Test system: HL-60(TB) leukemia
- test-summary: NCI tumour cell line growth inhibition, 48 h
measured-attribute: log10 TGI (log10 of the value in µM)
Note: values are log10 of TGI expressed in µM.

Solved cases below.
[[record]]
compound = "COc1ccc(N2CN3OC(=O)N(c4ccc(OC)cc4)[C@@]3(c3ccccc3)C2)cc1"
observed_value = 1.83

[[record]]
compound = "O=C(Nc1ccccc1)OCCN=C1c2ccccc2C(Br)C(Br)c2ccccc21 (stereo not drawn)"
observed_value = 0.59

[[record]]
compound = "COc1ccc(-c2cc(-c3ccc(Nc4nc(Nc5ccccc5)nc(Nc5ccc(Cl)cc5)n4)cc3)nc(N)c2C#N)cc1"
observed_value = 0.81

[[record]]
compound = "C=Cc1nc2c(Cl)ncnc2n1Cc1ccccc1"
observed_value = 0.96

[[record]]
compound = "O=C1N(C2CCCCC2)C(=O)N1C1CCCCC1"
observed_value = -0.44

[[record]]
compound = "COc1cc2nc(-c3ccc(C(F)(F)F)cc3)cc(OCCCN3CCC(O)CC3)c2cc1OC"
observed_value = 1.50

[[record]]
compound = "COc1cc(NC(C)c2ccc3c(c2)OCCO3)cc(OC)c1OC (stereo not drawn)"
observed_value = 1.69

[[record]]
compound = "COc1cc(C(=O)/C=C/c2sc(Cl)nc2Cl)cc(OC)c1OC"
observed_value = 0.65

[[record]]
compound = "Cc1nc2c(nc1C)C(=O)c1ccccc1C2=O"
observed_value = 1.14

[[record]]
compound = "NC(CSC(c1ccccc1)(c1ccccc1)c1ccc2c(c1)OCO2)C(=O)O (stereo not drawn)"
observed_value = -0.08


Task item: Lab note: need log10 TGI with HL-60(TB) leukemia for entry `O=C1C2=C(SCCS2)C(=O)c2ccccc21` , please look it up.
Reply: 0.83

Task item: And what about the compound Cc1cnc(NC(=O)C(Cc2ccccc2)NC(=O)c2ccccc2)s1 (stereo not drawn) ?
Reply: 1.71

###

- Test system: HCC-2998 colon
- test-summary: NCI tumour cell line growth inhibition, 48 h
The compounds listed here are annotated with their TGI.

Solved cases below.
[[record]]
compound = "COC1(c2ccc(Cl)cc2)SC=C(C)n2c1noc2=O (configuration not stated)"
observed_value = "> 100 µM"

[[record]]
compound = "CC1=C(C(=O)Nc2ccc(F)c(Cl)c2)C(c2ccc(Cl)cc2)NC(=O)N1 (configuration not stated)"
observed_value = "27.7 µM"

[[record]]
compound = "CCN(CC)c1ccc2cc(C(N)=O)c(=N)oc2c1"
observed_value = "57.2 µM"

[[record]]
compound = "COc1ccc(/C=C\\c2cc(OC)c3c(c2)OCO3)c(O)c1O"
observed_value = "> 58 µM"

[[record]]
compound = "C/C=C/C(C#N)(/C=C/c1ccccc1)OP1(=O)OC(c2ccccc2)C(C)N1C (configuration not stated)"
observed_value = "27.5 µM"

[[record]]
compound = "COc1cc(C(=O)/C=C/c2sc(Cl)nc2Cl)cc(OC)c1OC"
observed_value = "3.31 µM"

[[record]]
compound = "Cc1cnc(NC(=O)C(Cc2ccccc2)NC(=O)c2ccccc2)s1 (configuration not stated)"
observed_value = "5 µM"

[[record]]
compound = "S=c1nc2sc3c(c2c(Nc2ccc(Cl)cc2)[nH]1)CCCC3"
observed_value = "> 100 µM"

[[record]]
compound = "O=C1NC2(CCCCC2)C2CCCCC(O)C12 (configuration not stated)"
observed_value = "> 100 µM"

[[record]]
compound = "CC(=O)NC1=C(NCC(C)(C)C)C(=O)c2ccccc2C1=O"
observed_value = "> 100 µM"


Pending compound:
Task item: Could you tell me which TGI is on file for `O=C1OCN(c2ccccc2)C12CCN(Cc1ccccc1)CC2` ?
Reply: 32.6 µM
